Where these numbers come from: PubChem BioAssay (NCATS)

# System: Zika virus NS2B-NS3 protease
# TEST_DESCRIPTION: Primary screen GU AMC qHTS for Zika virus inhibitors (AID 1347154); further: potency means the concentration at half of the fitted maximal effect; nearly all actives have a fitted effect of over 70% in size
# MEASUREMENT_CONDITIONS: Zika NS2B-NS3 unlinked protease, AMC fluorogenic substrate; series mostly up to 54.1 µM
Records with an inconclusive call do not appear. Active and inactive are the calls of the source. The call rests on the fitted dose curve; in most records, active means well fitted inhibition curve with a large enough effect; inconclusive means small, poorly fitted or top-dose-only effect; inactive means flat fitted curve, though single readings scatter. Where a SMILES comes first, the peptide text is derived from it. [ ]: non-standard residue; d: D form. The star is where a group is joined. Fmoc = O=C(OCC1c2ccccc2-c2ccccc21)*; AMC = Cc1cc(=O)oc2cc(N*)ccc12; Cha = N[CH](CC1CCCCC1)C(=O)O
Measured Potency values are reported for all entries that follow.
PARAMETER: Potency

INSERT INTO results (compound, test_value) VALUES
  ('C=NC(C(=O)N[C@H]1C(=O)N2C1SC(C)(C)C2C(=O)O)c1ccccc1 (some centres not stated)', '26.7 µM (active)'),
  ('CC(=O)Oc1cc2c(c(C)c1OC(C)=O)CC=C1[C@@]2(C)CC[C@@]2(C)[C@H]3C[C@](C)(C(=O)O)CC[C@]3(C)CC[C@]12C', '13.4 µM (active)'),
  ('CC1(C(=O)O)NCCc2cc(O)c(O)cc21 (configuration not stated)', '10.6 µM (active)'),
  ('CCC1Cc2cc(O)ccc2C2=C1c1ccc(O)cc1CC2CC (configuration not stated)', '3.77 µM (active)'),
  ('CCCCc1nn(-c2ccccc2C(F)(F)F)c(=O)n1Cc1ccc(-c2ccccc2S(=O)(=O)NC(=O)c2sccc2C)cc1', '21.2 µM (active)'),
  ('Cc1cc(=O)oc2cc(NC(=O)C(CCCCN)NC(=O)C(CC3CCCCC3)NC(=O)OCC3c4ccccc4-c4ccccc43)ccc12 (configuration not stated) (Fmoc-[Cha]-Lys-{AMC}; configuration not given here)', '18.9 µM (active)'),
  ('O=C(O)c1c2ccccc2cc2ccccc12', '26.7 µM (active)');

* * *

# System: CP215
# TEST_DESCRIPTION: qHTS profiling for inhibitors of Plasmodium falciparum proliferation (AID 504749); further: nearly all actives have a fitted effect of over 60% in size
# MEASUREMENT_CONDITIONS: P. falciparum in erythrocytes, SYBR Green DNA, 72 h; series mostly up to 28.7 µM
Inconclusive results are not listed. Calls of active or inactive are those of the source. Calls follow the shape of the dose curve; as a rule, active = well fitted inhibition curve with a large enough effect; inconclusive = small, poorly fitted or top-dose-only effect; inactive = flat fitted curve, though single readings scatter.
Labels: class 1 for active, class 0 for inactive

INSERT INTO assay_data (compound, measured_target, class_name) VALUES
  ('C/C=C1\C2C=C(C)CC1(N)c1ccc(=O)[nH]c1C2 (configuration not stated)', 'CP215', 'class 0'),
  ('CC(C)C[C@@H](NC(=O)[C@H](Cc1ccccc1)NC(=O)c1cnccn1)B(O)O', 'CP215', 'class 1'),
  ('C[C@@H](C(=O)O)c1ccc(-c2ccccc2)c(F)c1', 'CP215', 'class 0'),
  ('CCOC(=O)C(CCc1ccccc1)NC1CCc2ccccc2N(CC(=O)O)C1=O (configuration not stated)', 'CP215', 'class 0'),
  ('O=C1c2cccc3c2[C@@H](CCC3)CN1[C@@H]1CN2CCC1CC2', 'CP215', 'class 0'),
  ('CC(=O)[C@H]1CC[C@H]2C3CC=C4C[C@@H](O)CC[C@]4(C)C3CC[C@]12C (some centres not stated)', 'CP215', 'class 0'),
  ('COC(=O)[C@@H]1[C@@H]2C[C@H]3c4[nH]c5ccccc5c4CCN3C[C@@H]2CC[C@@H]1O', 'CP215', 'class 0');
